The reported measurements were obtained from patent US20240059769A1.

Entries annotated with measured Kd
molecular target: T1, recombinant human IL-13 (human, UniProt P35225 35-146); assay: SPR
T1 construct: also called rh-IL-13; hIL-13
T1 sequence (P35225 35-146 limits assumed): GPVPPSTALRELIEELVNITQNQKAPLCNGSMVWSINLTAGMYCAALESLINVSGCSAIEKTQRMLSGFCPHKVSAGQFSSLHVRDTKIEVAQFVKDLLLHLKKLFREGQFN
Enter your answer as a number in nM; do not include the unit.

# Binder, Kd [nM]
measured = [
    ("BDG38.118 (antibody, V domains shown, IgG1) VH: QMQLVESGGGVVQPGRSLRLSCAASGFEFRTYGMHWVRQAPGKGLEWVGVIWYDGSATHYADSVKGRFTITRDNSKNTLNLQMNSLRVEDTAVYYCVRAPQWYLTAEAFDLWGQGTMVTVSS VL: SYILTQPPSVSVAPGETATITCGGNLIGARLVHWYQQKPGQAPVLVIYDDSDRPSRIPERFSGSNIGNTATLTISDVEEGDEADYYCQVWDYSSDHYVFGGGTKLTVL", 0.0157),
]

The record that follows has no Kd shown yet.
The binder BDG38.140 (antibody, V domains shown, IgG1) VH: QMQLVESGGGVVQPGRSLTLSCAASGFEFRTYGMHWVRQAPGKGLEWVGVIWDDGSNTHYADSVKGRFTITRDNSKNTLNLQMNSLRVEDTAVYYCARAPQWYLTAEAFDLWGQGTMVTVSS VL: SYILTQPPSVSVAPGETATITCGGNLIGAKLVHWYQQKPGQAPVLVIYDDSDRPSRIPERFSGSNIGNTATLTIEDVEAGDEADYYCQVWDYSANHMVFGGGTKLTVL showed Kd equal to 0.0344
